target: H2A-H2B histone dimer from Drosophila melanogaster (Drosophila melanogaster, UniProt P84051 2-121; P02283 2-123); experiment: ITC
measured_metric: Kd (nM)
Number only, in nM; omit the unit.

According to the records, this binder APLF acidic domain (APLF^AD), Homo sapiens APLF residues 450-511, wild type (domain or fragment) DEDNDNVGQPNEYDLNDSFLDDEEEDYEPTDEDSDWEPGKEDEEKEDVEELLKEAKRFMKRK displays Kd of 940
